- Target under test: CYP1B1 over CYP1A1 (Homo sapiens, UniProt Q16678)
- Assay text: EROD assay, CYP1B1 inhibition
- Condition label: human, pH 7.4, selectivity CYP1A1/CYP1B1, ratio of IC50 values
Readout kind: selectivity ratio
Form: value (number only, do not type unit).

Known results for molecules:
[[record]]
molecule = "CN(C)CC/C=C1/c2ccccc2Sc2ccc(Cl)cc21"
target_under_test = "CYP1B1 over CYP1A1 (Homo sapiens, UniProt Q16678)"
readout_kind = "selectivity ratio"
endpoint_result = 6.8

[[record]]
molecule = "CCCSc1nc(N[C@@H]2C[C@H]2c2ccc(F)c(F)c2)c2nnn([C@@H]3C[C@H](OCCO)[C@@H](O)[C@H]3O)c2n1"
target_under_test = "CYP1B1 over CYP1A1 (Homo sapiens, UniProt Q16678)"
readout_kind = "selectivity ratio"
endpoint_result = 1.22


Turning now to a further molecule:
Prompt line: Give CYP1B1 over CYP1A1 (Homo sapiens, UniProt Q16678) selectivity ratio for CC1CCc2c(N3CCC(O)CC3)c(F)cc3c(=O)c(C(=O)O)cn1c23 (stereo not drawn)
Response line: 1.61

---

- Target under test: CYP1B1 over CYP1A1 (Homo sapiens)
- Sequence (Q16678 1-543): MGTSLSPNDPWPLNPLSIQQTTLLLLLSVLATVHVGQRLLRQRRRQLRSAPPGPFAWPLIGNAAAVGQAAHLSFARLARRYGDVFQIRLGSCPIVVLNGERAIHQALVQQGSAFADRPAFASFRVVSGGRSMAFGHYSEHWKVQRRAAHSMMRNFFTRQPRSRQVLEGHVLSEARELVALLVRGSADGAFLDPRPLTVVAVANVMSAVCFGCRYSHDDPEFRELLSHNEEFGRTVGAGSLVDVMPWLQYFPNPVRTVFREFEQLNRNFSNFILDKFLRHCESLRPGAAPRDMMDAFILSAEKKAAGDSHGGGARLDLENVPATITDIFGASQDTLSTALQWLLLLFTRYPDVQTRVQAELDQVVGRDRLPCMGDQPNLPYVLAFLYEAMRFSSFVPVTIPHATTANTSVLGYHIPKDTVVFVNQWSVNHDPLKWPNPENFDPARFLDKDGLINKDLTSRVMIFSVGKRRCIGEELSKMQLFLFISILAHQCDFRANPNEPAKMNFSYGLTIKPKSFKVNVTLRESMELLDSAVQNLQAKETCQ
- Assay text: EROD assay, CYP1B1 inhibition
- Condition label: human, pH 7.4, selectivity toward CYP1B1 over CYP1A1, text
Readout kind: selectivity ratio
No unit in the answer, only the number.

Prompt line: Returns the measured selectivity ratio for the input molecule. Input: CN(C)CC/C=C1/c2ccccc2Sc2ccc(Cl)cc21 [chlorprothixene]
Response line: 7

---

We begin with a simple list: items and their reported pIC50.
- Target under test: recombinant human CYP1A1 (Homo sapiens, UniProt P04798)
- Sequence (P04798 whole entry): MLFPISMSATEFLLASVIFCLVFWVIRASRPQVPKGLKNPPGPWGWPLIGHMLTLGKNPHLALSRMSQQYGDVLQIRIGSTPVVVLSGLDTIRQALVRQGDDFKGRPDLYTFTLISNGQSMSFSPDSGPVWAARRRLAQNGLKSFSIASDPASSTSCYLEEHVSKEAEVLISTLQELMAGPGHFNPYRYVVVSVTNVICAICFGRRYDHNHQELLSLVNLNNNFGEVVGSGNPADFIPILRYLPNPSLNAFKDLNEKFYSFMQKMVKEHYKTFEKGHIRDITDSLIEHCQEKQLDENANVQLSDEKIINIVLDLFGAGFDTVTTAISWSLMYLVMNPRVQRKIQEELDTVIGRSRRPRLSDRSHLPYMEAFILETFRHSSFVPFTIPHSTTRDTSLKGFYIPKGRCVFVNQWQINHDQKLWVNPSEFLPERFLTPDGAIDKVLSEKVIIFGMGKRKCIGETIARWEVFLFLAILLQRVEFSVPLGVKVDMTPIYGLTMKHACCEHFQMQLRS
- Assay text: EROD assay, CYP1A1 inhibition
Reminder that pIC50 means the negative base-10 logarithm of the concentration expressed in mol/L.

Observe how each entry below is paired with its result.
[[record]]
molecule = "O=c1cc(-c2ccccc2)oc2c1ccc1ccccc12"
target_under_test = "recombinant human CYP1A1 (Homo sapiens, UniProt P04798)"
endpoint_result = 7.70

[[record]]
molecule = "CCCSc1nc(N[C@@H]2C[C@H]2c2ccc(F)c(F)c2)c2nnn([C@@H]3C[C@H](OCCO)[C@@H](O)[C@H]3O)c2n1"
target_under_test = "recombinant human CYP1A1 (Homo sapiens, UniProt P04798)"
endpoint_result = 5.46

[[record]]
molecule = "CN(C)CC/C=C1/c2ccccc2Sc2ccc(Cl)cc21"
target_under_test = "recombinant human CYP1A1 (Homo sapiens, UniProt P04798)"
endpoint_result = 6.31


# input for lookup
Prompt line: Record CC1CCc2c(N3CCC(O)CC3)c(F)cc3c(=O)c(C(=O)O)cn1c23 (centres unmarked) : what is its pIC50 with recombinant human CYP1A1 (Homo sapiens, UniProt P04798)?
Response line: 5.63
